# STUDY TARGET: RSV F on RSV-A2 virus (Respiratory syncytial virus, RSV-A2, UniProt P03420 26-574)
# ASSAY SUMMARY: cell-based or functional assay
OBSERVED PROPERTY: Neutralization IC50 (RSV subtype A)

*Q* # return recorded Neutralization IC50 (RSV subtype A) for entry ADI-41690 (antibody, V domains shown, also called Ab 893; Antibody Number 893) VH: QVQLVQSGAEVKKPGESLRISCKGSGYSFSSHWIGWVRQKPGKGLEWMGIIYPGDSDTRYSPSFQGHVTISADKSISTAYLRWSSLKASDTAIYYCAKRMVGDYYGMNLWGQGTTVTVSS VL: EIVMTQSPSSLSASVGDRVTITCQASQDISNRLNWYQQKPGKAPKLLIYDASNLETGVPSRFSGSGSGTDFTFTISSLQPEDIATYFCQQYDYLLWFTFGPGTKVDIK
*A* > 25 µg/mL

*Q* # return recorded Neutralization IC50 (RSV subtype A) for entry ADI-41562 (antibody, V domains shown, also called Ab 842; Antibody Number 842) VH: QVQLVQSGAEVKKPGASVRVSCKTSGYAFSKYGISWVRQAPGQGLEWIGWISAYNENTHFSHKFLGRVTMTTDTSTGIAYMDLRSLKSDDTAVYYCARDWYSLGSDWYFGPMFDYWGQGTLVTVSS VL: EIVLTQSPDTLSVSPGERATLSCRASQSVTTNLAWYQQKPGHAPRLLIYGASTRATGIPARFSGSGSGTEFTLTISSLQSEDFAIYYCQQYTNWPRTFGQGTKVEIK
*A* > 25 µg/mL

Further cases:
*Q* # return recorded Neutralization IC50 (RSV subtype A) for entry ADI-41552 (antibody, V domains shown) VH: EVQLLESGGGLVQPGGSLRLSCAASGFTFSPYSMNWVRQAPGKGLEWVSYISRSGSFKYYADSVKGRFTISRDDAKNSLYLHMNSLRDDDTAVYYCVSYCSSATCHQRFDYWGQGTLVTVSS VL: EIVLTQSPATLSLSPGERATLSCRASQSVNSYLAWYQQKPGQAPRLLIYDASNRATGIPARFSGSGSGTDFTLTISSLEPEDFAVYYCQERNSWPKLTFGGGTKVEIK
*A* > 25 µg/mL
